Recorded pIC50 by entry
Target: human recombinant H-PGDS (Homo sapiens, UniProt O60760)
Sequence (O60760 whole entry): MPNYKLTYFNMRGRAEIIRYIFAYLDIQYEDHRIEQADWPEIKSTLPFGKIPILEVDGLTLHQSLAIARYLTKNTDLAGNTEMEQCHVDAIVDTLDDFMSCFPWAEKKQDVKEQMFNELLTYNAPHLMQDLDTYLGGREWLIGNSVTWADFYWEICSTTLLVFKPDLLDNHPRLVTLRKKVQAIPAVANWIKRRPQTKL
Test: Fluorescence intensity h-PGDS TBA enzyme assay
Format: biochemical
Conditions: Examples up to 622 (and 3a, 3b)
pIC50 is defined as minus the log10 of a concentration measured in mol/L.

Guide cases for pIC50, answers given:
>  <compound>
Cc1cccc(CN2CCC(NC(=O)c3ccc(-c4cccc(F)c4)nc3)CC2)n1

>  <reported.value>
9.30

$$$$
>  <compound>
COc1cccc(C(C)N2CCC(NC(=O)c3ccc(-c4cccc(F)c4)nc3)CC2)c1 (stereo not shown)

>  <reported.value>
8.89

$$$$

Indicate the recorded pIC50 value for this compound: `COC(=O)c1ccc2[nH]cc(CN3CCC(NC(=O)c4ccc(-c5cccc(F)c5)nc4)CC3)c2c1`
8.76

Indicate the recorded pIC50 value for this compound: `Nc1nc(N2CCC(NC(=O)c3ccc(-c4cccc(F)c4)nc3)CC2)c2nc[nH]c2n1`
9.44
